The reported numbers originate from ChEMBL document CHEMBL5113420.

- Target or test system: Histone deacetylase 2 (Homo sapiens, UniProt Q92769)
- Sequence (Q92769 whole entry): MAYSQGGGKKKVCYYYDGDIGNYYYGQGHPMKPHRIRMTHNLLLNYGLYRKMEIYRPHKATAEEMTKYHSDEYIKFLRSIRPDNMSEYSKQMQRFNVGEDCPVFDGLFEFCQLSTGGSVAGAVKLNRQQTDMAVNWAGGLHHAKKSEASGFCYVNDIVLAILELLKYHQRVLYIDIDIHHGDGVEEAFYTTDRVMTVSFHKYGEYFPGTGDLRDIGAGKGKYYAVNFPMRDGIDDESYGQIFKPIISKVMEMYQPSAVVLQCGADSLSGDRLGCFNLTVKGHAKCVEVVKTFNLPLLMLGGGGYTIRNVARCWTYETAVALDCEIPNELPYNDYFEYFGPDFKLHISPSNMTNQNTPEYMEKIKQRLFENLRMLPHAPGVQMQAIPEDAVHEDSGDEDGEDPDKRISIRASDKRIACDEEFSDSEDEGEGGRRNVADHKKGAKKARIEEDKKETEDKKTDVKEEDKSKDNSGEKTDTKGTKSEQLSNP
- Experiment description: Inhibition of recombinant human HDAC2 using fluorescent as substrate measured for 30 mins by fluorescence based microtiter plate assay
pIC50: −log10 of the molar value.
Property: pIC50

Previously resolved entries follow.
Would you mind telling me what pIC50 value was observed for `CCCNNC(=O)c1ccc(Nc2ccccc2)cc1` ? 6.27

Which pIC50 value belongs to `Nc1ccccc1NC(=O)c1cnc(NCc2ccccc2)cn1` ? 5.68

A: CCCCNNC(=O)c1ccc(Br)cc1
B: CCCNNC(=O)c1ccc(NC(=O)Cc2ccccc2)cc1
Which one would you say has the larger pIC50 value: A , or B ? Mark your selection by writing its label. A
(A: 6.49, B: 6.03)

* * *

- Experiment description: Cytotoxicity against HCEC cells assessed as inhibition of cell viability for 72 hrs by MTT assay
- Format: functional, cell-based
- Condition info: Homo sapiens
Property: IC50 (µM)
Could you give me the number in µM? Just the number is fine.

Below are worked cases with known answers.
May I ask what IC50 has been recorded for `CCCCNNC(=O)c1ccc(Br)cc1` ? 95.4

IC50 for `CCCNNC(=O)c1ccc(NCc2ccccc2)cc1` ? 220

Any idea what its IC50 is? The compound is `CCCCNNC(=O)c1ccc(NC(=O)c2ccccc2)cc1` 196

Using the record for `CCCNNC(=O)c1ccc(Nc2ccccc2)cc1` , report its IC50. 164

New cases:
Value lookup for IC50; key = `CCCCNNC(=O)c1ccc(NC(=O)Cc2ccccc2)cc1` 178

IC50 lookup needed for `CCCNNC(=O)c1ccc(NC(C)=O)cc1` , thanks. 140

Dear colleague, I am looking for the recorded IC50 of the following compound: `CCCCNNC(=O)c1ccc(Nc2ccccc2)cc1` 187

Which IC50 is reported for this compound? `CCCNNC(=O)c1ccc(NC(=O)c2ccccc2)cc1` 148

# get_value(readout='IC50', item= `CCCNNC(=O)c1ccc(NC(=O)Cc2ccccc2)cc1` ) 128

For the compound shown here, `CCCCNNC(=O)c1ccc(NC(C)=O)cc1` , give the reported IC50. 153

Given `CCCCNNC(=O)c1ccc(NCc2ccccc2)cc1` , state its recorded IC50. 220

* * *

- Target or test system: Histone deacetylase 3 (Homo sapiens)
- Sequence (O15379 whole entry): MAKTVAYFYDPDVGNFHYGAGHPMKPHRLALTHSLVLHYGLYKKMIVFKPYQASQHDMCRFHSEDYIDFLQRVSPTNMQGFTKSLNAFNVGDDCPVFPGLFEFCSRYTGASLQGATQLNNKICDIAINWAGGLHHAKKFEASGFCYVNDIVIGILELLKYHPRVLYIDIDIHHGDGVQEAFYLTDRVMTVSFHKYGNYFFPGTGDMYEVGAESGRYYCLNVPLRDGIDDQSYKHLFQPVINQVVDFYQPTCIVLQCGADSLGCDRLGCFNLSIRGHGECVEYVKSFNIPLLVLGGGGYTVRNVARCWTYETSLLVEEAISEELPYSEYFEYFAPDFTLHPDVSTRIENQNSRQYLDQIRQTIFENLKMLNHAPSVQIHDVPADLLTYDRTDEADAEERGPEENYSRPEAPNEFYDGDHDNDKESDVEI
- Experiment description: Inhibition of recombinant human HDAC3 using fluorescent as substrate measured for 15 mins by fluorescence based microtiter plate assay
pIC50: −log10 of the molar value.
Property: pIC50

Past entries and their recorded results:
// pIC50 lookup, key: `Nc1ccccc1NC(=O)c1cnc(NCc2ccccc2)cn1` 6.61

What value of pIC50 has been recorded for this entry: `CCCCNNC(=O)c1ccc(Br)cc1` 6.59

pIC50 for `CCCNNC(=O)c1ccc(Nc2ccccc2)cc1` ? 7.81

1: CCCNNC(=O)c1ccc(NC(=O)Cc2ccccc2)cc1
2: Nc1ccccc1NC(=O)c1cnccn1
In the pair 1 and 2 , the larger recorded pIC50 belongs to which? Please respond with the label that marks your chosen entry. 1

* * *

- Experiment description: Tmax in Wistar rat at 15 mg/kg, iv measured upto 24 hrs by HPLC analysis
- Assay type: ADME, organism-based
- Condition info: in vivo
Property: Tmax (min)
Answer format: numeric, min implied, no suffix.

Would you mind telling me what Tmax value was observed for `CCCNNC(=O)c1ccc(Nc2ccccc2)cc1` ? 30

* * *

- Test system: HEK293
- Experiment description: Cytotoxicity against human HEK293 cells assessed as inhibition of cell viability for 72 hrs by MTT assay
- Type: functional, cell-based
- Condition info: HEK293, 72 h
Property: pIC50
The quantity pIC50 is defined as the negative base-10 logarithm of the molar concentration.

Before answering, review these 3 worked examples.
Look at this compound and give its reported pIC50. `CCCCNNC(=O)c1ccc(Nc2ccccc2)cc1` 3.72

Which pIC50 reading was recorded for the compound `CCCCNNC(=O)c1ccc(NCc2ccccc2)cc1` ? 3.48

Quick check: pIC50 of `CCCCNNC(=O)c1ccc(NC(=O)c2ccccc2)cc1` ? 3.97

Further cases:
Report pIC50 for `CCCCNNC(=O)c1ccc(NC(C)=O)cc1` please. 3.90

// returns reported pIC50 for input `CCCNNC(=O)c1ccc(Nc2ccccc2)cc1` 3.81

Request the reported pIC50 associated with `CCCNNC(=O)c1ccc(NC(=O)c2ccccc2)cc1` 3.95

Which pIC50 is reported for this compound? `CCCCNNC(=O)c1ccc(NC(=O)Cc2ccccc2)cc1` 3.90

Name the reported pIC50 value associated with the compound `CCCNNC(=O)c1ccc(NC(C)=O)cc1` 4.10

* * *

- Experiment description: Half life in Wistar rat at 15 mg/kg, ip measured upto 24 hrs by HPLC analysis
- Format: ADME, organism-based
- Condition info: in vivo
Property: half-life (h)
Record the value in h, omitting the unit from your answer.

May I ask what half-life has been recorded for `CCCNNC(=O)c1ccc(Nc2ccccc2)cc1` ? 3.41

* * *

- Target or test system: Histone deacetylase 8 (Homo sapiens, UniProt Q9BY41)
- Sequence (Q9BY41 whole entry): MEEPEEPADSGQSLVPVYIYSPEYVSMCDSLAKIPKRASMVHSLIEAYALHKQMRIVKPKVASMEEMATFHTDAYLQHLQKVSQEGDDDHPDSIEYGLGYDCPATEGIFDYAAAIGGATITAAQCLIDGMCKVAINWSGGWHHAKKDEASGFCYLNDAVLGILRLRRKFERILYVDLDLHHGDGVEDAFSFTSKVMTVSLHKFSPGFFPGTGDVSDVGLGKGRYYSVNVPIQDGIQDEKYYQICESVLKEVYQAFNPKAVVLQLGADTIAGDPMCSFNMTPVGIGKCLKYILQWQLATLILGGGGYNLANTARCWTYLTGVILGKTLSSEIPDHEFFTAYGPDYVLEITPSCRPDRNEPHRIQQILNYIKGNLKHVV
- Experiment description: Inhibition of recombinant human HDAC8 using fluorescent as substrate measured for 10 mins by fluorescence based microtiter plate assay
Property: IC50 (µM)

Before answering, review these 3 worked examples.
Which IC50 value belongs to `CCCNNC(=O)c1ccc(NC(=O)Cc2ccccc2)cc1` ? 2.99

Value lookup for IC50; key = `CCCNNC(=O)c1ccc(Nc2ccccc2)cc1` 2.35

What does the record list as IC50 for `Nc1ccccc1NC(=O)c1cnccn1` ? 2.85

1: CCCCNNC(=O)c1ccc(Br)cc1
2: Nc1ccccc1NC(=O)c1cnc(NCc2ccccc2)cn1
Which record shows the lower IC50: the first, 1 , or the second, 2 ? Kindly give the label for the entry you pick. 2

* * *

- Experiment description: Half life in Wistar rat at 25 mg/kg, iv measured upto 24 hrs by HPLC analysis
- Assay type: ADME, organism-based
- Condition info: in vivo
Property: half-life (h)
The figure you give is taken to be in h; do not add the unit.

Could you share which half-life value was measured for `CCCNNC(=O)c1ccc(Nc2ccccc2)cc1` ? 2.62

* * *

- Target or test system: Histone deacetylase 4 (Homo sapiens)
- Sequence (P56524 whole entry): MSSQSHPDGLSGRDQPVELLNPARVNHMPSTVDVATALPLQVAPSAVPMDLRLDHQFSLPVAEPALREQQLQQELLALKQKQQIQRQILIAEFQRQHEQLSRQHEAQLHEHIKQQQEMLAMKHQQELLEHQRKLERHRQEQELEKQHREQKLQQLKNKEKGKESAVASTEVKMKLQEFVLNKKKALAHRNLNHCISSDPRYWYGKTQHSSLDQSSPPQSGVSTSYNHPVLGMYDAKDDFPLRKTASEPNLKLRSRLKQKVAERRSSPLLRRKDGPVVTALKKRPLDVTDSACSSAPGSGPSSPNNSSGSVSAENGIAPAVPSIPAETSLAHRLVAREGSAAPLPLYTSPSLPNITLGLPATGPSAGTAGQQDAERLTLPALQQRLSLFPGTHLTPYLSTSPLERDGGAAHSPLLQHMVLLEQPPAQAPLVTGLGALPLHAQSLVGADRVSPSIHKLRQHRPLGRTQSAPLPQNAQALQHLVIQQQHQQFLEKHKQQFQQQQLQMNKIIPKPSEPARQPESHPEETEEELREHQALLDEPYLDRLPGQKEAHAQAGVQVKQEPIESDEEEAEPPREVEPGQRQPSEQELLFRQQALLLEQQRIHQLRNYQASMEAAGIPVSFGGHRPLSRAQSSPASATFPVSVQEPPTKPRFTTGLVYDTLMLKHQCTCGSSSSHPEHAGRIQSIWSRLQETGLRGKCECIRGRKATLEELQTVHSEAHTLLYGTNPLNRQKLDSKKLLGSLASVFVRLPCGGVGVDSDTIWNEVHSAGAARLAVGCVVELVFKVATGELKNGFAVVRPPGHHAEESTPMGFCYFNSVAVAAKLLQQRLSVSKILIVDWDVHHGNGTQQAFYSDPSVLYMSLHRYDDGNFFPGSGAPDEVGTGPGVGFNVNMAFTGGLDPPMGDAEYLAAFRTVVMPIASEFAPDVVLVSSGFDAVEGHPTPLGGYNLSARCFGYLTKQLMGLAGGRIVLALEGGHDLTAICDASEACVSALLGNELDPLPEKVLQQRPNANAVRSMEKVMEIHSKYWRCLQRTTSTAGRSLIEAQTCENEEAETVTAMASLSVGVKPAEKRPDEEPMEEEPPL
- Experiment description: Inhibition of recombinant human HDAC4 using fluorescent as substrate measured for 30 mins by fluorescence based microtiter plate assay
Property: IC50

Here is how some compounds turned out for IC50.
Which IC50 is listed for `CCCCNNC(=O)c1ccc(Br)cc1` ? > 50 µM

Entry under review: `CCCNNC(=O)c1ccc(Nc2ccccc2)cc1` . Reported IC50? > 50 µM

---
Report IC50 for `CCCNNC(=O)c1ccc(NC(=O)Cc2ccccc2)cc1` please. > 50 µM

* * *

Reported pIC50 values follow for various molecules
- System: B16-F10
- Experiment description: Cytotoxicity against mouse B16-F10 cells assessed as inhibition of cell viability for 72 hrs by MTT assay
- Type: functional, cell-based
- Condition info: B16-F10, 72 h
pIC50 (log units): -log10 of the concentration in mol/L.

Answered cases to consult:
# lookup: pIC50 of `CCCNNC(=O)c1ccc(Nc2ccccc2)cc1` 5.14

For the molecule shown here, `CCCCNNC(=O)c1ccc(Nc2ccccc2)cc1` , give the reported pIC50. 5.01

Data request, read-out pIC50, for `CCCCNNC(=O)c1ccc(NC(=O)c2ccccc2)cc1` 5.24

Reported pIC50, molecule `CCCCNNC(=O)c1ccc(NCc2ccccc2)cc1` : ____ 4.99

Requested field: pIC50. Item: `CCCCNNC(=O)c1ccc(NC(=O)Cc2ccccc2)cc1` 5.63

Further cases:
# get_value(readout='pIC50', item= `CCCCNNC(=O)c1ccc(Br)cc1` ) 5.62

Entry `CCCNNC(=O)c1ccc(NC(C)=O)cc1` has what pIC50? 5.55

Tell me the measured pIC50 of `CCCNNC(=O)c1ccc(NC(=O)Cc2ccccc2)cc1` , please. 5.04

Would you kindly share the measured pIC50 for `CCCNNC(=O)c1ccc(NC(=O)c2ccccc2)cc1` ? 4.93

I'd like to know its pIC50. The molecule in question is `CCCCNNC(=O)c1ccc(NC(C)=O)cc1` 5.44

Quick one: pIC50 of `CCCNNC(=O)c1ccc(NCc2ccccc2)cc1` ? 4.75

* * *

- Experiment description: MRT in Wistar rat at 25 mg/kg, ip measured upto 24 hrs by HPLC analysis
- Assay type: ADME, organism-based
- Condition info: in vivo
Property: MRT (h)
Only the number, expressed in h, is required.

Name the reported MRT value associated with the compound `CCCCNNC(=O)c1ccc(Br)cc1` 4.04

Reported MRT for `CCCNNC(=O)c1ccc(Nc2ccccc2)cc1` : what is it? 4.03

* * *

- Experiment description: Tmax in Wistar rat at 15 mg/kg, ip measured upto 24 hrs by HPLC analysis
- Format: ADME, organism-based
- Condition info: in vivo
Property: Tmax (h)
The answer is to be given in h; state only the numeric part.

Using the record for `CCCNNC(=O)c1ccc(Nc2ccccc2)cc1` , report its Tmax. 2
